System: HOP-62
protocol.description: NCI tumour cell line growth inhibition, 48 h
Activity calls are given as the source filed them. Rule as the data show it: active = GI50 up to about 1.1 µM and inactive = higher.
recorded.metric: GI50

COc1cc(O)c2c(=O)c(O)c(-c3ccc(O)c(O)c3)oc2c1	14.6 µM (inactive)

Kindly state the measured GI50 obtained for COC(=O)c1ccccc1C1CN=NC12Cc1cccc(C)c1C2=O (stereo not given) with HOP-62. 45.2 µM (inactive)

Form entry - test system: HOP-62; read-out: GI50; compound: `Cc1ccc(S(=O)(=O)N/N=c2\c(C)c(C3=NS(=O)(=O)c4cc(S(N)(=O)=O)c(Cl)cc4N3)oc3c(Cl)cc(Cl)cc23)cc1` > 100 µM (inactive)

What is its GI50 for HOP-62? Entry: `CC(C)(C)O/N=C/c1cc(NC(=S)c2ccccc2)ccc1Cl` 13.7 µM (inactive)

Item `COc1ccc(CCCNC(=O)Cc2cc(OC)c(OC)cc2CO)cc1OC` with HOP-62 - GI50? > 100 µM (inactive)

# get_value(readout= GI50, system= HOP-62) for `COc1cc(/C=C2\N=C(C)N(n3c(-c4ccccc4)nc4ccccc4c3=O)C2=O)cc(OC)c1OC` > 100 µM (inactive)

Observed GI50 on HOP-62 for `O=C(/C=C\c1ccc(/C=C/C(=O)Nc2cccc(C3=NCCCN3)c2)cc1)Nc1cccc(C2=NCCCN2)c1` , please. 65.8 µM (inactive)

What reported GI50 corresponds to c1ccc(C2OCC(OC3CCCCO3)CO2)cc1 (stereo not given) on HOP-62? > 100 µM (inactive)

Param readout= GI50; system= HOP-62; entry= `Cc1nc(N)nc(N)c1CCCc1ccccc1` ; returns value. 12.1 µM (inactive)

Form field - read-out: GI50; system: HOP-62; submitted item: `COC(=O)C(=O)CC(=O)c1cccc(OC)c1` > 100 µM (inactive)

###

System: RXF 393
protocol.description: NCI tumour cell line growth inhibition, 48 h
Active and inactive are the calls of the source. Cut-off read from the data, not from the text of the source: active = GI50 up to about 1.1 µM and inactive = higher.
recorded.metric: GI50

# annotated cases, reported GI50 shown
O=C(/C=C/c1ccc([N+](=O)[O-])cc1)N1CCN(CCOC(c2ccc(F)cc2)c2ccc(F)cc2)CC1	9.44 µM (inactive)
O=C(O)Cc1nc[nH]c1C(=O)O	> 100 µM (inactive)
CC(SC(=S)N1CCCC1)C(=O)Nc1nnc(-c2ccc(Cl)cc2)o1 (stereo not given)	55.2 µM (inactive)

# GI50 lookup, item `O=C1/C(=C/c2ccc([N+](=O)[O-])cc2)CNC/C1=C\c1ccc([N+](=O)[O-])cc1` 12.2 µM (inactive)

Please report the recorded GI50 for O=C1OC2CCCC[C@@H]2C2C[C@]34CCCCC3[C@@H](C(=O)O4)C12 (stereo not given in full) . > 100 µM (inactive)

I would be grateful if you could share the reported GI50 for `Cc1cccc(NC(=S)Nc2ccc(Cl)cc2)n1` . > 100 µM (inactive)

Value lookup for GI50; key = O=C(CC1(O)C(=O)Nc2ccc([N+](=O)[O-])cc21)c1ccc2ccccc2c1 (stereo not given) > 100 µM (inactive)

Value lookup for GI50; key = COc1nc2c(c(=O)n1C)N(C(C)=O)C1C(N2)OCC(OC(C)=O)C1OC(C)=O (stereo not given) > 10 µM (inactive)

Recorded GI50 for `Cc1cccc2c1NC(=S)[C@@H]1CCCN1C2=O` , please? > 100 µM (inactive)

Can you share its GI50? I mean this compound: `COc1ccc(Nc2nc(N)c(C(=O)c3ccco3)s2)cc1` 31.8 µM (inactive)

###

System: HOP-62
protocol.description: NCI tumour cell line growth inhibition, 48 h
The source made the active and inactive calls. No stated cut-off is given here; in the data, active = GI50 up to about 1.1 µM and inactive = higher.
Response enum: True (active), False (inactive)

Check out these entries, answers already filled in.
O=c1c2ccccc2c2c1c1c3ccccc3c(=O)c1c1c3ccccc3c(=O)c21	False
CN(C(=O)C1=CCC2(CC1)OCCO2)c1ccccc1I	False
COc1ccc2[nH]c3c(C)c4ccnc(NCCCN(C)CCCNc5ccc([N+](=O)[O-])c6[nH]c7ccccc7c(=O)c56)c4c(C)c3c2c1	True
COc1cc(C2c3cc4c(cc3[C@@H](Nc3ccc5c(c3)OCCO5)C3COC(=O)[C@H]23)OCO4)cc(OC)c1O (some centres undefined)	True
CCO[C@@H]1OC(=O)[C@@](C)(C(C)=O)[C@@H]1C	False

State the result this test recorded for CCOC(=O)N1CC2(C)C=CC1C(C(=O)OC)C2 (centres undefined) . False

Assay result, entry `CC(=O)NC(=N/N=C1/C(=O)Nc2ccc(C)cc21)NC(C)=O` — outcome? False

# outcome recorded in this test, key = `Cc1cc2c(cc1C)[n+]([O-])c(C(=O)/C=C/c1ccccc1Cl)c(C)[n+]2[O-]` False

Please state the recorded outcome for this compound: `Cc1cc(C)nc(NS(=O)(=O)c2ccc(NC(=O)c3cccc4c(Nc5ccc(S(=O)(=O)Nc6nc(C)cc(C)n6)cc5)c5ccccc5nc34)cc2)n1` False

###

Test system: TK-10
protocol.description: NCI tumour cell line growth inhibition, 48 h
Activity calls are given as the source filed them. No stated cut-off is given here; in the data, active = GI50 up to about 1.1 µM and inactive = higher.
Result category, one only: T for active, F for inactive

Solved cases below.
CC(=O)NC(=N/N=C1/C(=O)Nc2ccc(C)cc21)NC(C)=O	F
CCCC(=O)c1ccc(=O)n(C)c1	F

Would you mind telling me which call this test gave COc1cc(C2c3cc4c(cc3OC(C)(N3CCCC3)C2C)OCO4)cc(OC)c1OC (configuration not stated) ? T

For COc1ccc(C(C)NNC(=O)c2cc[n+]([BH2-]C#N)cc2)cc1F (configuration not stated) , which call appears in the assay record? F

Recorded test call requested for O=C1OC(c2ccccc2)=N/C1=C/NC(Cc1ccc(O)cc1)C(=O)O (configuration not stated) F

Query: recorded result category for `C=C(Cl)CN1c2ccccc2C=Cc2ccccc21` in this test F

###

// reported GI50 per item
Tested on: OVCAR-5
protocol.description: NCI tumour cell line growth inhibition, 48 h
The source made the active and inactive calls. No stated cut-off is given here; in the data, active = GI50 up to about 1.1 µM and inactive = higher.

Past entries and their recorded results:
CCO[C@@H]1OC(=O)[C@@](C)(C(C)=O)[C@@H]1C	60 µM (inactive)
CCOC(=O)CCN1C(=O)C(=O)N(c2ccc(OC)cc2)C1=S	> 100 µM (inactive)
Cc1nn(C(=O)c2ccccc2O)c2c1C(c1ccccc1)SC(=N)N2 (stereo not given)	6.08 µM (inactive)

Need GI50, item `COC(=O)[C@H](Cc1c[nH]c2ccccc12)NC(=O)c1ccc(CNC(=O)/C=C/c2cccc(Oc3ccccc3)c2)cc1` > 100 µM (inactive)

Fill in the blank: the reported GI50 of `COc1ccc(Nc2nc(N)c(C(=O)c3ccco3)s2)cc1` is ____. > 83.2 µM (inactive)

###

Tested on: SW-620
protocol.description: NCI tumour cell line growth inhibition, 48 h
Calls of active or inactive are those of the source. Cut-off read from the data, not from the text of the source: active = GI50 up to about 1.1 µM and inactive = higher.
recorded.metric: GI50

Worked cases, answers included:
C/C=C/CC(C)[C@@H](O)[C@H](NC)C(=O)O (stereo partly specified)	> 100 µM (inactive)
c1ccc(C2OCC(OC3CCCCO3)CO2)cc1 (stereo unspecified)	> 100 µM (inactive)
S=C=NC1CCC(c2cc3ccccc3s2)(N2CCCCC2)CC1 (stereo unspecified)	2.02 µM (inactive)

Would you mind telling me what GI50 value was observed for `N=C(N)SCCc1cn2ccccc2n1` ? > 100 µM (inactive)

Which GI50 value belongs to `CCCCCCCCCc1c(Cl)nc(Cl)nc1Cl` ? 10.1 µM (inactive)

Item under review: O=C([O-])C(O)C(O)C(O)C(O)C(=O)O.[K+] (stereo unspecified) . Reported GI50? > 100 µM (inactive)

Look up GI50 for this compound: `Cc1c2cc[n+](C)cc2c(C)c2c1sc1ccccc12` 0.553 µM (active)

Quick one: GI50 of `Cc1ccc(NC(=O)/C(Cc2nc3ccc([N+](=O)[O-])cc3nc2O)=N\NC(=O)C[n+]2ccccc2)c(C)c1` ? 61.1 µM (inactive)

###

Tested on: U-251
protocol.description: NCI tumour cell line growth inhibition, 48 h
Active and inactive are the calls of the source. Rule as the data show it: active = GI50 up to about 1.1 µM and inactive = higher.
Thanks in advance; please answer with one of these: YES = active, NO = inactive

Returns: the outcome recorded for O=C1CC2CCCCC2=C1O (stereo not given) in this assay. NO

Which outcome did this test record for the compound COc1ccc(CC2NC(=O)/C=C/CC(C(C)C3OC3c3ccccc3)OC(=O)C(CC(C)C)OC(=O)C(C)CNC2=O)cc1Cl (stereo not given) ? YES

Each compound tested received a call. Report the one for `Oc1cccc(/C=N/N=c2/[nH][nH]/c(=N/N=C/c3cccc(O)c3)c3ccccc23)c1` . NO

What did the test return for CCC1([N+](=O)[O-])CC2C=CC1C2 (stereo not given) ? NO

In this assay, the call recorded for `O=[N+]([O-])C(/C(Cl)=C(/Cl)N1CCOCC1)=C1\Nc2ccccc2O1` was what? NO
